Reference source: the METLIN SMRT retention time set (Domingo-Almenara et al. 2019)

# assay.method.text: gradient 5% acetonitrile 3 min, to 50% in 2 min, to 85% in 15 min, held 3 min, 100 µL/min
# condition.summary: column: Zorbax Extend-C18 2.1 x 50 mm; eluents: water / acetonitrile, 0.1% formic acid
Classification field: enter 1 for RP-LC retention time values not below 800 s, -1 for values below it.

Example entries begin here.
[
  {
    "compound": "O=S(=O)(c1c(Cl)cccc1Cl)N1CCN(Cc2ccc3c(c2)OCO3)CC1",
    "group.label": -1
  },
  {
    "compound": "CCC1Oc2ccc(S(=O)(=O)N3CCC(C(=O)N(CC)Cc4ccccc4)CC3)cc2NC1=O (stereo not drawn)",
    "group.label": 1
  },
  {
    "compound": "Cc1ccc(Cn2c(N3CCCC(C(=O)NCCc4cccs4)C3)nc3ccsc3c2=O)cc1 (stereo not drawn)",
    "group.label": 1
  },
  {
    "compound": "Cn1cc(C(CNC(=O)Nc2ccccc2)c2cccnc2)c2ccccc21 (stereo not drawn)",
    "group.label": -1
  }
]

// next entry
Task item: hey, is RP-LC retention time for this one >= 800 s? O=C(NCc1ccccn1)c1cccn1Cc1noc(-c2ccc(Cl)cc2)n1
Reply: -1

---

Consider the following molecules; for each one, report its RP-LC retention time.
# assay.method.text: gradient 5% acetonitrile 3 min, to 50% in 2 min, to 85% in 15 min, held 3 min, 100 µL/min
# condition.summary: column: Zorbax Extend-C18 2.1 x 50 mm; eluents: water / acetonitrile, 0.1% formic acid
Numbers only, in s.

Could I get RP-LC retention time for every one of these entries?
1. CCOC(=O)N1CCc2c(sc(NC(=O)C3CC3)c2-c2nc3ccccc3s2)C1
2. Cn1cc(S(=O)(=O)N2CCCCC2)cc1C(=O)Nc1ccc2c(c1)OCO2
3. O=C(c1ccc2ccnc(N3CCN(c4ccc(Cl)cc4)CC3)c2c1)N1CCCCC1

Reply:
1. 905
2. 924
3. 894

---

# assay.method.text: gradient 5% acetonitrile 3 min, to 50% in 2 min, to 85% in 15 min, held 3 min, 100 µL/min
# condition.summary: column: Zorbax Extend-C18 2.1 x 50 mm; eluents: water / acetonitrile, 0.1% formic acid
Values of RP-LC retention time strictly less than 800 s map to 1.0, and values of at least 800 s map to 0.0.

Task item: Answer whether the compound CSc1ccc(-c2nc3cc(C)ccn3c2Nc2ccc(Cl)cc2)cc1 has RP-LC retention time strictly less than 800 s
Reply: 0.0

Task item: Answer whether the compound Cc1ccc(NC(=O)C2CCN(S(C)(=O)=O)c3cc(C)ccc3O2)cc1 (centres undefined) has RP-LC retention time strictly less than 800 s
Reply: 0.0

Task item: Answer whether the compound Cc1cc(C)cc(NC(=O)COc2cc(C)nc(N3CCN(c4ccccc4)CC3)n2)c1 has RP-LC retention time strictly less than 800 s
Reply: 0.0

Task item: Answer whether the compound O=S(=O)(c1ccc(-c2noc(-c3ccccc3Cl)n2)cc1)N1CCCC1 has RP-LC retention time strictly less than 800 s
Reply: 0.0

Task item: Answer whether the compound Cc1nn(C)c(C)c1CNC(=O)CN1CCN(Cc2ccc(F)cc2)C1=O has RP-LC retention time strictly less than 800 s
Reply: 1.0

Task item: Answer whether the compound O=C(c1cc2ccc3cccnc3c2[nH]1)N1CCN(c2ccccn2)CC1 has RP-LC retention time strictly less than 800 s
Reply: 1.0

---

# assay.method.text: gradient 5% acetonitrile 3 min, to 50% in 2 min, to 85% in 15 min, held 3 min, 100 µL/min
# condition.summary: column: Zorbax Extend-C18 2.1 x 50 mm; eluents: water / acetonitrile, 0.1% formic acid
Consider the following molecules; for each one, report its RP-LC retention time.
Answers are plain numbers, in s.

The examples below pair each entry with its known result.
[
  {
    "molecule": "O=C(c1ccc2ccccc2n1)N1CCN(C(=O)c2nnn3c2COC(c2ccccc2)C3)CC1 (stereo not drawn)",
    "recorded.result": 833
  },
  {
    "molecule": "CN(C)c1ccc(-c2nc(C3CC(=O)N(c4ccc(F)cc4)C3)no2)cc1 (stereo not drawn)",
    "recorded.result": 975
  },
  {
    "molecule": "COc1ccc(-c2nc3cc(C)ccn3c2NC(=O)COc2ccc(Cl)cc2)cc1",
    "recorded.result": 729
  },
  {
    "molecule": "CCN(CC)c1ccc(NS(=O)(=O)c2cc(-c3nc(C)cs3)sc2C)c(C)c1",
    "recorded.result": 750
  },
  {
    "molecule": "CCc1cc(C(=O)N2CCN(c3ccccn3)CC2)nc2ccnn12",
    "recorded.result": 573
  },
  {
    "molecule": "CN1C(=O)c2cc(C(=O)NCCCN3CCCC3)nn2CC1(C)C(=O)NCc1ccc(F)cc1 (stereo not drawn)",
    "recorded.result": 585
  }
]

Could I get RP-LC retention time for every one of these entries?
1. COc1ccc(-c2nc3cc(C)ccn3c2NC(=O)c2ccc([N+](=O)[O-])cc2)cc1
2. CN(C)c1ncnc2c1ncn2-c1ccccc1
3. O=S(=O)(CCCOc1ccc2c(c1)OCO2)NCCC1=CCCCC1
4. Cc1ccc(N2N=C(C(=O)NCCN3CCOCC3)S(=O)(=O)c3cc(F)ccc32)cc1
5. O=C(CSc1nnc2scc(-c3ccc(Cl)cc3)n12)NCC1CCCO1 (stereo not drawn)
6. CCN1C(=O)c2cc(S(=O)(=O)NCc3cccc(C)c3)ccc2Oc2cccnc21

Reply:
[691, 714, 1000, 654, 675, 1030]

Could I get RP-LC retention time for every one of these entries?
1. Cc1ccc2c(c1)C(=O)NC1(CCN(C(=O)c3ccc4c(c3)OCO4)CC1)N2C
2. Cc1cc(C)nc(-n2nc(C)cc2N)n1
3. COc1cccc(CNC(=O)C2(c3ccc(NC(C)=O)cc3)CCC2)c1
4. CN(CCc1noc(-c2ccc(F)cc2)n1)C(=O)NCc1ccccc1
5. O=C(NCC1CCCCC1)C1CCN(c2cncnc2N2CCOCC2)CC1
6. Cc1cc(Cl)ccc1S(=O)(=O)N1CCC2(CCC(CN3CCN(C)CC3)O2)CC1 (stereo not drawn)
7. COc1nc2ccccc2nc1N1CCCC(C(=O)NCc2ccccc2)C1 (stereo not drawn)
8. CC(C)c1cc(N2CCN(C(=O)c3ccccc3)CC2)nc2nncn12

Reply:
[721, 577, 737, 839, 644, 642, 1040, 594]

Could I get RP-LC retention time for every one of these entries?
1. CN(Cc1ccccc1)C(=O)c1ccc2c(c1)N(CC(=O)N1CCCC1)C(=O)CO2
2. Cc1ccc(C(=O)N2C[C@@H](F)C[C@H]2C(=O)N2CCOCC2)cc1
3. Cc1ccc(Cn2cc(C(=O)O)c(S(=O)(=O)N3CCSCC3)n2)cc1
4. CC1(C)CC2CC(C)(CN2c2ncnc(N)c2[N+](=O)[O-])C1 (stereo not drawn)
5. CCOC(=O)C1C(=O)NC(N2CCc3ccccc32)=NC1c1ccco1 (stereo not drawn)
6. Cc1ccc(C)c(-c2csc(Cc3nc(-c4ccc5c(c4)OCO5)no3)n2)c1

Reply:
1. 723
2. 621
3. 861
4. 867
5. 690
6. 1260

Could I get RP-LC retention time for every one of these entries?
1. COc1ccc(OC)c(CNC(=O)C2CCN(S(=O)(=O)c3cn(C)cn3)CC2)c1
2. O=C(NC1CCCC1)N1CCN(Cc2nc3cc(C(=O)N4CCCCC4)ccc3o2)CC1

Reply:
1. 663
2. 644

---

# assay.method.text: gradient 5% acetonitrile 3 min, to 50% in 2 min, to 85% in 15 min, held 3 min, 100 µL/min
# condition.summary: column: Zorbax Extend-C18 2.1 x 50 mm; eluents: water / acetonitrile, 0.1% formic acid
Classification field: enter Met for RP-LC retention time values not below 800 s, Not met for values below it.

[
  {
    "molecule": "O=C(Nc1ccccc1)C1CCc2nc(N3CCCCC3)ncc2C1 (stereo not given)",
    "group.label": "Not met"
  },
  {
    "molecule": "COc1ccc(C2(C(=O)N3CC(n4c(C)cnc4-c4ccccc4)C3)CC2)cc1",
    "group.label": "Not met"
  }
]

// next entry
Task item: hey, is RP-LC retention time for this one >= 800 s? CCC(=O)Oc1ccc(NC(=O)c2ccc(S(=O)(=O)N3CCCC3)cc2)cc1
Reply: Met

---

# assay.method.text: gradient 5% acetonitrile 3 min, to 50% in 2 min, to 85% in 15 min, held 3 min, 100 µL/min
# condition.summary: column: Zorbax Extend-C18 2.1 x 50 mm; eluents: water / acetonitrile, 0.1% formic acid
Each entry belongs to exactly one class, chosen by where its RP-LC retention time falls: low bracket = under 700 s, middle bracket = from 700 s up to 800 s, high bracket = 800 s and over

[
  {
    "molecule": "COc1ccc(CCS(=O)(=O)NCC(c2cccn2C)N2CCOCC2)cc1 (configuration not stated)",
    "group.label": "low bracket"
  },
  {
    "molecule": "Cc1nc(-c2noc(-c3ccncc3)n2)cn1CC(=O)Nc1cccc(Cl)c1",
    "group.label": "middle bracket"
  },
  {
    "molecule": "COc1ccc(C2C(C(=O)N3CCCCCC3)c3cc(OC)c(OC)cc3C(=O)N2C)cc1OC (configuration not stated)",
    "group.label": "middle bracket"
  },
  {
    "molecule": "COc1ccc(-c2cn3c(CC(=O)N4CCc5ccccc54)csc3n2)cc1OC",
    "group.label": "middle bracket"
  },
  {
    "molecule": "Cc1ccc(-c2cc(N3CCN(C(=O)c4ccc(C)c(C)c4)CC3)ncn2)cc1",
    "group.label": "middle bracket"
  },
  {
    "molecule": "CC(C)(C)NC(=O)N1[C@H]2CC[C@@H]1c1cnc(-c3ccccc3)nc1C2",
    "group.label": "high bracket"
  },
  {
    "molecule": "COc1ccc(OC)c(NC(=O)N2c3ccccc3CC2c2nc(C3CC3)no2)c1 (configuration not stated)",
    "group.label": "high bracket"
  },
  {
    "molecule": "CN1C(=O)c2cc(S(=O)(=O)NCc3ccccc3Cl)ccc2Oc2cccnc21",
    "group.label": "high bracket"
  }
]

Task item: Would you mind sorting CCOC(=O)c1cc2c([nH]c1=O)CC(c1cccc(C)c1)CC2=O (configuration not stated) into the appropriate category?
Reply: low bracket

Task item: Would you mind sorting CCn1cc(-c2ccc(F)cc2)cc1C(=O)NCC1CCCO1 (configuration not stated) into the appropriate category?
Reply: high bracket

Task item: Would you mind sorting Cc1ccc(C(=O)N2CC(Cn3c(C)cnc3C3CCOCC3)C2)s1 into the appropriate category?
Reply: low bracket

Task item: Would you mind sorting CN1C(=O)c2cccn2CC1C(=O)Nc1ccccc1F (configuration not stated) into the appropriate category?
Reply: low bracket

Task item: Would you mind sorting CCOc1ccccc1NC(=O)Cn1cnc2nc(N3CCCC(C(=O)NC4CC4)C3)sc2c1=O (configuration not stated) into the appropriate category?
Reply: middle bracket

Task item: Would you mind sorting Cc1noc(-c2cc(=O)n(CC(=O)NCc3ccc(Cl)cc3)c3ccccc23)n1 into the appropriate category?
Reply: high bracket

Task item: Would you mind sorting CCc1nc(-c2csc(S(=O)(=O)N3CCC(C(=O)Nc4ccc(F)cc4)CC3)c2)no1 into the appropriate category?
Reply: high bracket
